Biological target: Neu5Ac(a2-8)Neu5Ac(a2-3)[GalNAc(b1-4)]Gal(b1-4)Glc
Experiment: glycan array binding signal (z-score within array); higher = stronger binding
Conditions: glycan notation: IUPAC condensed, linker removed
About 410 targets per protein were measured; listed, in parts, are those with the strongest signals and a random draw of the rest.
Think of -0.2 as a floor: if glycan array binding signal (z-score) stands on it or above, it is TRUE; beneath it, FALSE.

Examples from the recorded data:
Flo11 (Saccharomyces cerevisiae), Q1H8S8 (protein) MGSSHHHHHHSSGLVPRGSHMFPTALVPRGSSEGTSCNSIVNGCPNLDFNWHMDQQNIMQYTLDVTSVSWVQDNTYQITIHVKGKENIDLKYLWSLKIIGVTGPKGTVQLYGYNENTYLIDNPTDFTATFEVYATQDVNSCQVWMPNFQIQFEYLQGSAAQYASSWQWGTTSFDLSTGCNNYDNQGHSQTDFPGFYWNIDCDNNCGGTKSS	TRUE
Sp8391B-bot-388-20-388 (Bacteroides ovatus) (protein) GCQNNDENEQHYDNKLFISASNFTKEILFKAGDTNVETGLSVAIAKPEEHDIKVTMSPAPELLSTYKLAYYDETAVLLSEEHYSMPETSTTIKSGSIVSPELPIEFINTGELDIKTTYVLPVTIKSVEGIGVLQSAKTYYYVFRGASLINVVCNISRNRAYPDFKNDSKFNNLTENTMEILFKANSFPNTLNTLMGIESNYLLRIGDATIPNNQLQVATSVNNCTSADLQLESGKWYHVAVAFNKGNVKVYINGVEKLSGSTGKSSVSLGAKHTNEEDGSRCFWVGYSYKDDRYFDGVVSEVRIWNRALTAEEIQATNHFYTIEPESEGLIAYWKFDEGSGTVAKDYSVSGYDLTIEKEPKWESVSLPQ	TRUE
CGL (Crenomytilus grayanus), H2FH31 (protein) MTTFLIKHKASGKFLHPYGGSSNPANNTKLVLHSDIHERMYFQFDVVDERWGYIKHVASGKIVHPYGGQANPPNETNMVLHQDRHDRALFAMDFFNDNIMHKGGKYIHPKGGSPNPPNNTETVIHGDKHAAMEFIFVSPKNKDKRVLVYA	FALSE
rCnSL-A (Clitocybe nebularis) (protein) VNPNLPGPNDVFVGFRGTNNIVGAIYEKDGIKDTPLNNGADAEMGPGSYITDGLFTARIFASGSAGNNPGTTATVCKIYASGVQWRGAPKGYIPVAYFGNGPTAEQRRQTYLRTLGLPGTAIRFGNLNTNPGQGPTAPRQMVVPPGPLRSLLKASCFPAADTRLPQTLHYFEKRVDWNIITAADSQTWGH	FALSE

Now examine the next entry.
[ask] Dear colleague, could you confirm whether AT5G24760(45) (Arabidopsis thaliana), Q8LEB2 (protein) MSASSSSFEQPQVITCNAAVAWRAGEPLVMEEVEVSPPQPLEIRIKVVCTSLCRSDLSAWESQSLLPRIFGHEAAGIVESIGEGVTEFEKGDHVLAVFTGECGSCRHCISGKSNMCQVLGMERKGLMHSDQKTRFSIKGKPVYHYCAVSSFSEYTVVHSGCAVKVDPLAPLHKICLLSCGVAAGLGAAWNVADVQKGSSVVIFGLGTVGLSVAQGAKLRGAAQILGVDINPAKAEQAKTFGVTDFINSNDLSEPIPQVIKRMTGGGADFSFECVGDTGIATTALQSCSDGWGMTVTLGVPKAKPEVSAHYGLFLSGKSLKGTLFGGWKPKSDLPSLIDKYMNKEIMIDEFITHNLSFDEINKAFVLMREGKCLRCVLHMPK has glycan array binding signal (z-score) at or above -0.2?
[reply] FALSE

Reference for the values: the supplement of paper PMC8728848
